- Measurement Description: Compound 4 pharmacokinetics and tissue exposure, five daily subcutaneous doses, mice
- Type: in vivo, C57BL/6 mice
- Assay Setup: male, C57BL/6, mouse, in vivo, sc, 180 mg/kg, Concentration in C57BL/6 Mouse Tissue, Mean
- Procedure: • Animals were allowed to acclimate to the test facility for at least two days prior to the beginning of the study. • Study animals were male C57BL/6 mice weighing approximately 18-25 grams each. • Fasting was not required for the study. • Body weights were recorded prior to dose administration. The volume of each dose delivered (mL/kg) was based on each individual animal's body weight. • This was a multiple dose serial PK dosed subcutaneously once daily over 5 days. […]
Measurement Label: concentration at 24 h (ng/g)

{"Compound Structure": "CC1=C(C)C(=O)C(CC[C@](C)(O)CCCCCCCCC(F)(F)F)=C(C)C1=O", "Measurement Label": "concentration at 24 h", "Result Number": 529}

----------
- Measurement Description: Compound 4 pharmacokinetics and tissue exposure, five daily subcutaneous doses, mice
- Assay type: in vivo, C57BL/6 mice
- Assay Setup: male, C57BL/6, mouse, in vivo, sc, 60 mg/kg
Measurement Label: AUC(0-t) (ng·h/mL)

{"Compound Structure": "CC1=C(C)C(=O)C(CC[C@](C)(O)CCCCCCCCC(F)(F)F)=C(C)C1=O", "Unit Descriptor": "ng·h/mL", "Result Number": 15400}

----------
- Measurement Description: Compound 4 pharmacokinetics and tissue exposure, five daily subcutaneous doses, mice
- Assay type: in vivo, C57BL/6 mice
- Assay Setup: male, C57BL/6, mouse, in vivo, sc, 60 mg/kg, Concentration in C57BL/6 Mouse Tissue, Geomean

{"Molecule": "CC1=C(C)C(=O)C(CC[C@](C)(O)CCCCCCCCC(F)(F)F)=C(C)C1=O [Compound 4]", "concentration at 24 h (ng/g)": 192}

----------
- Measurement Description: Compound 4 pharmacokinetics and tissue exposure, five daily subcutaneous doses, mice
- Format: in vivo, C57BL/6 mice
- Assay Setup: male, C57BL/6, mouse, in vivo, sc, Tmax
Measurement Label: Tmax

{"Compound": "CC1=C(C)C(=O)C(CC[C@](C)(O)CCCCCCCCC(F)(F)F)=C(C)C1=O [Compound 4]", "Result": "0.5 to 2 h"}

----------
- Measurement Description: Compound 4 pharmacokinetics and tissue exposure, five daily subcutaneous doses, mice
- Type: in vivo, C57BL/6 mice
- Assay Setup: male, C57BL/6, mouse, in vivo, sc, 60 mg/kg, Cmax

{"Molecule": "CC1=C(C)C(=O)C(CC[C@](C)(O)CCCCCCCCC(F)(F)F)=C(C)C1=O [Compound 4]", "Unit Descriptor": "ng/mL", "Cmax": 1810}
